Biological target: Retinaldehyde dehydrogenase 3 (Homo sapiens) (UniProt P47895)
Assay: qHTS for Inhibitors of the Aldehyde Dehydrogenase Family (ALDH1A3) Validation screen (AID 2061312); also: nearly all actives have a fitted effect of over 45% in size
Details: ALDH1A3 enzyme inhibition qHTS validation, fluorescence; series mostly up to 84.7 µM
Records with an inconclusive call do not appear. Calls of active or inactive are those of the source. Calls follow the shape of the dose curve; as a rule, active = well fitted inhibition curve with a large enough effect; inconclusive = small, poorly fitted or top-dose-only effect; inactive = no such curve, though single readings can be large or run the other way.
Hello, when you answer, please use one of the following outcomes: active, inactive

Some entries whose results are on file:
CCCc1cc(C)[nH]c(=O)c1CNC(=O)c1cc(-c2ccc(N3CCN(C(C)C)CC3)nc2)cc2c1cnn2C(C)C | inactive
Cc1nc2ccc(CN(C)c3ccc(C(=O)NC(CCC(=O)O)C(=O)O)s3)cc2c(=O)[nH]1 (centres undefined) | inactive

Exam item: Please share the test call associated with `Cc1cnc(-c2ccccc2C(C)C)nc1NCc1ccc(-n2ccnn2)cc1` .
Marked response: inactive

Exam item: What classification did COc1cc2c(cc1-c1c(C)noc1C)ncc1[nH]c(=O)n(C(C)c3ccccn3)c12 (centres undefined) end up with in this test?
Marked response: inactive

Exam item: What outcome does the record of this test show for NC(=O)C(CCC(F)(F)F)N(Cc1ccc(-c2ncon2)cc1F)S(=O)(=O)c1ccc(Cl)cc1 (centres undefined) ?
Marked response: inactive

Exam item: Which result was noted for this compound in the test: CC(C)(C(=O)NCC(F)(F)C(F)(F)F)C(=O)NC1C(=O)Nc2ccccc2-c2ccccc21 (centres undefined)
Marked response: inactive

Exam item: Check the results log: what was the call for `C[C@@H](O[C@H]1OCCN(Cc2n[nH]nc2CN(C)C)[C@H]1c1ccc(F)cc1)c1cc(C(F)(F)F)cc(C(F)(F)F)c1` ?
Marked response: inactive

* * *

Target: Aldehyde dehydrogenase 1A1 (Homo sapiens)
Assay: qHTS for Inhibitors of the Aldehyde Dehydrogenase Family (ALDH1A1) Confirmatory screens (AID 2061316); also: nearly all actives have a fitted effect of over 65% in size
Conditions: ALDH inhibition qHTS; series mostly up to 47.3 µM
Records with an inconclusive call do not appear. The source made the active and inactive calls. Calls come from the whole dose curve; as a rule, active = well fitted inhibition curve with a large enough effect; inconclusive = small, poorly fitted or top-dose-only effect; inactive = no such curve, though single readings can be large or run the other way.
Choose one outcome from this list and give only that: active, inactive

Worked examples, 2 compounds total:
CC(=O)Nc1sc2c(c1-c1ccc(C#N)cc1)CCNC2 | inactive
CC(C)N1CCc2c(sc(NC(=O)Cc3ccccc3)c2-c2nc3ccccc3s2)C1 | inactive

Exam item: Given `Cc1cc(C)nc(NC(=S)N2CCN(c3cc4ccccc4cn3)CC2)c1` , state the outcome it received in this test.
Marked response: active

* * *

Target: Aldehyde dehydrogenase, mitochondrial (Homo sapiens) (UniProt P05091)
Experiment: qHTS for Inhibitors of the Aldehyde Dehydrogenase Family (ALDH2) Primary screen (AID 2061308); also: nearly all actives have a fitted effect of over 55% in size
Conditions: ALDH2 enzyme inhibition qHTS, 1536-well; series mostly up to 56 µM
Records with an inconclusive call do not appear. Activity calls are given as the source filed them. Calls come from the whole dose curve; as a rule, active = well fitted inhibition curve with a large enough effect; inconclusive = small, poorly fitted or top-dose-only effect; inactive = flat fitted curve, though single readings scatter.
I would appreciate it if you answered using one of these outcomes: yes (1) = active, no (0) = inactive

Worked set:
O=C(Nc1nnc(-c2ccco2)o1)c1ccc(Cl)cc1 | no (0)
NC(=O)C1CCN(c2ncc(-c3ccc4c(c3)OC(F)(F)O4)s2)CC1 | no (0)
O=C(OCC#CCSc1nnc(-c2cccc3ccccc23)o1)c1ccc(OC(F)F)cc1 | no (0)
O=S(=O)(NC1CCN(S(=O)(=O)c2ccc3c(c2)OCCO3)C1)c1c(F)cccc1F (stereo not drawn) | no (0)
COc1ccccc1-c1nnc2n1N=C(c1ccc(OC(F)F)c(OCC3CC3)c1)CS2 | no (0)

Exam item: Just curious, what result did `CCOC(=O)/C=C/c1cc(F)c(S(=O)(=O)N2CCN(S(=O)(=O)c3ccc4c(c3)OCCO4)CC2)cc1F` get here?
Marked response: no (0)

Exam item: What call does the record list for `CC(C)(C)OC(=O)N1CCN(c2ccc(NCc3ncc(-c4ccc(C#N)cc4)s3)cc2)CC1` ?
Marked response: yes (1)

Exam item: Dear colleague, could you share the recorded outcome for `NC(=O)c1ccc(Cc2c(-c3cccc(-c4ccccc4)c3)[nH]n(-c3nc(C(=O)O)cs3)c2=O)cc1` when you have a moment?
Marked response: no (0)

Exam item: Entry `O=C(CSc1ncnc2sc3c(c12)CCCCC3)NCc1ccco1` : call = ?
Marked response: no (0)

Exam item: Could you check what this test reported for `CC(C)N1Cc2ccc(Nc3nn4c(=O)c5ccccc5nc4s3)cc2C1` ?
Marked response: no (0)

Exam item: Any idea what this test logged for CCN(CC)C(=O)CC(c1ccc2c(c1)OCO2)c1c(O)cc(OC)cc1OC (stereo not drawn) ?
Marked response: no (0)

Exam item: Called result for `Cc1ccc(OC2=NS(=O)(=O)c3ccccc32)cc1`
Marked response: no (0)

Exam item: Please state the recorded outcome for this compound: `CC(C)(C)NS(=O)(=O)c1cccc(-c2nnc(SCc3ccc(C(=O)O)cc3)n2-c2ccccc2)c1`
Marked response: no (0)

Exam item: What classification did `COc1ccccc1C(=O)OCC#CCSc1nnc(-c2cccc3ccccc23)o1` end up with in this test?
Marked response: no (0)

Exam item: Outcome? O=C1CC(c2ccccc2)CC2=C1C1(CCCCC1)N=C(Nc1nc3ccccc3o1)N2 (stereo not drawn)
Marked response: no (0)

Exam item: Name the outcome recorded for `Cc1nc(NCc2ccccc2)c2nc(-c3ccccc3)n(CCN3CCCCC3)c2n1` in the assay.
Marked response: no (0)

Exam item: Entry `COc1ccc(CCc2nc3c(C)c(-c4c(C)noc4C)c(C)cc3n2CCN2CCOCC2)cc1` : call = ?
Marked response: no (0)

Exam item: Could you kindly confirm the outcome this assay logged for `C=CC(=O)N1CCC[C@@H](n2nc(-c3ccc(Oc4ccccc4)cc3)c3c(N)ncnc32)C1` ?
Marked response: no (0)
